- protocol notes: Compound stability in human plasma
- Assay type: in vitro ADME
- test context: pH 7.4, 37° C., 10 μM
Starred links: 1 amine or outer side, 2 acyl side, 3 side chain; linkers in the order of their positions; H or OH if unused. Positions of bridges follow the written chain, without caps; N, C: chain ends. Non-standard residues stand in square brackets, D forms with d. Residues, ends and D or L forms follow the SMILES beside them. Trp(7-aza) = N[C@@H](Cc1c[nH]c2ncccc12)C(=O)O; pXylylene = c1cc(C[*:2])ccc1C[*:1]; Phg = N[C@H](C(=O)O)c1ccccc1; NMeS = CN[C@@H](CO)C(=O)O; Nva = CCC[C@H](N)C(=O)O
quantity: half-life at 10 μM

Request: Answer with the recorded half-life at 10 μM of CCC[C@H](NC(=O)[C@@H]1CSCc2ccc(cc2)CSC[C@H](NC(=O)[C@H](CCC)NC(C)=O)C(=O)N[C@@H](c2ccccc2)C(=O)N[C@@H]([C@@H](C)O)C(=O)N[C@@H](Cc2c[nH]c3ncccc23)C(=O)N[C@@H](CCC(=O)O)C(=O)N[C@@H](Cc2ccc(O)cc2)C(=O)N(C)[C@@H](CO)C(=O)N[C@@H](Cc2c[nH]cn2)C(=O)N1)C(N)=O [Compound R3050] (Ac-[Nva]C[Phg]T[Trp(7-aza)]EY[NMeS]HC[Nva]-NH2; linker 2-10 via pXylylene) only.
Result: > 24 h

* * *

- measured on: C5 (Homo sapiens)
- protocol notes: Human hemolysis assay (RBC lysis assay using complete human sera)
- Type: cell-based
- Parameters: with complete human sera (Complement Technology, Tyler Tex.) and polypeptides; tissue Complement Technology, Tyler Tex; host or cells: complete human serum
- test context: inhibition of lysis of antibody-sensitized sheep erythrocytes, complete human sera
pIC50: −log10 of the molar value. Starred links: 1 amine or outer side, 2 acyl side, 3 side chain; linkers in the order of their positions; H or OH if unused. Positions of bridges follow the written chain, without caps; N, C: chain ends. Non-standard residues stand in square brackets, D forms with d. Residues, ends and D or L forms follow the SMILES beside them. Trp(7-aza) = N[C@@H](Cc1c[nH]c2ncccc12)C(=O)O; mXylylene = c1cc(C[*:1])cc(C[*:2])c1; Phg = N[C@H](C(=O)O)c1ccccc1; NMeS = CN[C@@H](CO)C(=O)O; Nva = CCC[C@H](N)C(=O)O
quantity: pIC50

// known answers, use as guide
CCC[C@H](NC(=O)[C@@H]1CSSC[C@H](NC(=O)[C@H](CCC)NC(C)=O)C(=O)N[C@@H](c2ccccc2)C(=O)N[C@@H]([C@@H](C)O)C(=O)N[C@@H](Cc2c[nH]c3ncccc23)C(=O)N[C@@H](CCC(=O)O)C(=O)N[C@@H](Cc2ccc(O)cc2)C(=O)N(C)[C@@H](CO)C(=O)N[C@@H](Cc2c[nH]cn2)C(=O)N1)C(N)=O [Compound R3042] (Ac-[Nva]C[Phg]T[Trp(7-aza)]EY[NMeS]HC[Nva]-NH2; disulfide 2-10) = < 4.00
CCC[C@H](NC(=O)[C@@H]1CSCc2cccc(c2)CSC[C@H](NC(=O)[C@H](CCC)NC(C)=O)C(=O)N[C@@H](c2ccccc2)C(=O)N[C@@H]([C@@H](C)O)C(=O)N[C@@H](Cc2ccccc2)C(=O)N[C@@H](CCC(=O)O)C(=O)N[C@@H](Cc2ccc(O)cc2)C(=O)N(C)[C@@H](CO)C(=O)N[C@@H](C)C(=O)N1)C(N)=O [Compound R3092] (Ac-[Nva]C[Phg]TFEY[NMeS]AC[Nva]-NH2; linker 2-10 via mXylylene) = < 4.30

Would you kindly look at the next entry?
Request: Answer with the recorded pIC50 of CCC[C@H](NC(=O)[C@@H]1CCCN1C(=O)[C@H](CCC)NC(=O)[C@@H]1CSCc2cccc(c2)CSC[C@H](NC(C)=O)C(=O)N[C@@H](c2ccccc2)C(=O)N[C@@H]([C@@H](C)O)C(=O)N[C@@H](Cc2c[nH]c3ncccc23)C(=O)N[C@@H](CCC(=O)O)C(=O)N[C@@H](Cc2ccc(O)cc2)C(=O)N(C)[C@@H](CO)C(=O)N[C@@H](Cc2c[nH]cn2)C(=O)N1)C(N)=O [Compound R3014] (Ac-C[Phg]T[Trp(7-aza)]EY[NMeS]HC[Nva]P[Nva]-NH2; linker 1-9 via mXylylene) only.
Result: 5.85

* * *

- measured on: C5 (Homo sapiens)
- protocol notes: Human hemolysis assay (RBC lysis assay using complete human sera)
- Assay type: cell-based
- Set-up: with complete human sera (Complement Technology, Tyler Tex.) and polypeptides; tissue Complement Technology, Tyler Tex; host or cells: complete human serum
- test context: 7-azatryptophan variant polypeptides of R3002; inhibition of red blood cell lysis
Starred links: 1 amine or outer side, 2 acyl side, 3 side chain; linkers in the order of their positions; H or OH if unused. Positions of bridges follow the written chain, without caps; N, C: chain ends. Non-standard residues stand in square brackets, D forms with d. Residues, ends and D or L forms follow the SMILES beside them. mXylylene = c1cc(C[*:1])cc(C[*:2])c1; Phg = N[C@H](C(=O)O)c1ccccc1; Tle = CC(C)(C)[C@H](N)C(=O)O; Nva = CCC[C@H](N)C(=O)O
Give measured IC50 for each item. Keep answers brief.

// known answers, use as guide
CCC[C@H](NC(C)=O)C(=O)N[C@@H](CS)C(=O)N[C@@H](Cc1ccc(O)cc1)C(=O)N[C@@H](CC(N)=O)C(=O)N[C@@H](CC(N)=O)C(=O)N[C@H](C(=O)N[C@@H](CCC(=O)O)C(=O)N[C@@H](CS)C(=O)N[C@@H](CCC(=O)O)C(=O)N[C@@H](Cc1ccc(O)cc1)C(=O)N1CCC[C@H]1C(=O)N[C@H](C(=O)N[C@H](C(N)=O)C(C)(C)C)c1ccccc1)C(C)(C)C [Compound R3128, Ac-Nvl-C-Y-N-N-Tbg-E-C-E-Y-P-Phg-Tbg-NH2] (Ac-[Nva]CYNN[Tle]ECEYP[Phg][Tle]-NH2) = > 100 µM
CCC[C@H](NC(C)=O)C(=O)N[C@H]1CSCc2cccc(c2)CSC[C@@H](C(=O)N[C@@H](CCC(=O)O)C(=O)N[C@@H](Cc2ccc(O)cc2)C(=O)N2CCC[C@H]2C(=O)N[C@H](C(=O)N[C@H](C(N)=O)C(C)(C)C)c2ccccc2)NC(=O)[C@H](CCC(=O)O)NC(=O)[C@H](C(C)(C)C)NC(=O)[C@H](CC(N)=O)NC(=O)[C@H](CC(N)=O)NC(=O)[C@H](Cc2ccc(O)cc2)NC1=O [Compound R3129] (Ac-[Nva]CYNN[Tle]ECEYP[Phg][Tle]-NH2; linker 2-8 via mXylylene) = > 100 µM

Would you kindly look at the next entry?
Request: Answer with the recorded IC50 of `CCC[C@H](NC(=O)[C@@H](NC(=O)[C@@H]1CCCN1C(=O)[C@H](Cc1ccc(O)cc1)NC(=O)[C@H](CCC(=O)O)NC(=O)[C@@H](Cc1c[nH]c2ccccc12)NC(=O)[C@H](Cc1ccc(O)cc1)NC(=O)[C@@H](NC(=O)[C@H](CC(N)=O)NC(=O)[C@H](CCC(=O)O)NC(=O)[C@H](Cc1ccc(O)cc1)NC(C)=O)C(C)(C)C)c1ccccc1)C(N)=O` only.
Result: > 100 µM

* * *

- measured on: C5 (Homo sapiens, UniProt P01031)
- Sequence (P01031 19-1676): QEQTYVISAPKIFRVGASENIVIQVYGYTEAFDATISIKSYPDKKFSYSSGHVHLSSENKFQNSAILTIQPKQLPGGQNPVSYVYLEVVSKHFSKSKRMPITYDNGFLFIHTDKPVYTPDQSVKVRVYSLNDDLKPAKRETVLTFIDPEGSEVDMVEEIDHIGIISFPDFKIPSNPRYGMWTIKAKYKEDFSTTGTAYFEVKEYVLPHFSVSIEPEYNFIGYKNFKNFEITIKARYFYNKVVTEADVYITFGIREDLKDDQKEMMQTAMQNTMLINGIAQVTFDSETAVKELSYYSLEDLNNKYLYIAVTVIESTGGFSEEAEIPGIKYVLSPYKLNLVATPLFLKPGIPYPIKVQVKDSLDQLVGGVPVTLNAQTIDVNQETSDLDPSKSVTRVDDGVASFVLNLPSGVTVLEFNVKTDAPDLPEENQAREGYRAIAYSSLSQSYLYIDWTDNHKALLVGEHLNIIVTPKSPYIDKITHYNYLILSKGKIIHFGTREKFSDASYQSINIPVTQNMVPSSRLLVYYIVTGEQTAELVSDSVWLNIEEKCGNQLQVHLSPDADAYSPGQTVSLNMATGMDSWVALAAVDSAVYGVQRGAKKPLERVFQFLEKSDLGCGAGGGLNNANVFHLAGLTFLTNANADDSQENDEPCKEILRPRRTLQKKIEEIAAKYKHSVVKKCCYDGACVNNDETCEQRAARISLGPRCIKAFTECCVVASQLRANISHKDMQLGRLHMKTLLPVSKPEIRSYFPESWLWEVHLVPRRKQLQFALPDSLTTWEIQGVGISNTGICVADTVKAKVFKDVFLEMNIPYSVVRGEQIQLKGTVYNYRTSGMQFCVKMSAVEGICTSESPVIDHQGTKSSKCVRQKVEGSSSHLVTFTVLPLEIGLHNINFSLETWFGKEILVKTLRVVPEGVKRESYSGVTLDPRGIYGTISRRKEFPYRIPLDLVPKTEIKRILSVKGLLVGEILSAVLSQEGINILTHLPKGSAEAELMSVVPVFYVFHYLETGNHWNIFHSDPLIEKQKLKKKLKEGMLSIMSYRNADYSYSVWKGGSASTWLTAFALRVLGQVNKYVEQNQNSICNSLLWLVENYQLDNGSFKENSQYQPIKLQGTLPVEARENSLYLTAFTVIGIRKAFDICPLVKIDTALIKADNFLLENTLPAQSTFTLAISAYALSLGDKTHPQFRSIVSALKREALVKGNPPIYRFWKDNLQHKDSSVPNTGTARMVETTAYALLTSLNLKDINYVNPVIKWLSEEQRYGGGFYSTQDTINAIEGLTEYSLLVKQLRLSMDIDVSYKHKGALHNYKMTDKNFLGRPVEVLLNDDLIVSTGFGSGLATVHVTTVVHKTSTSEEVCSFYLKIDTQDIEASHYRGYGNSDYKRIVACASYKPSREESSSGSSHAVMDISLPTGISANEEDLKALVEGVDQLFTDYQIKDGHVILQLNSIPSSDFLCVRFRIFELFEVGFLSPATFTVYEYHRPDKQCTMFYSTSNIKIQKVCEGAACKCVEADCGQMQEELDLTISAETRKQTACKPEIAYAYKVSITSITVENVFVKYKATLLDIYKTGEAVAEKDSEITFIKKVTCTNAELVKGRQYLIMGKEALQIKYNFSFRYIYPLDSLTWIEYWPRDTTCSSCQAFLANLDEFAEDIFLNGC
- protocol notes: Human hemolysis assay (RBC lysis assay using complete human sera)
- Type: cell-based
- Set-up: with complete human sera (Complement Technology, Tyler Tex.) and polypeptides; tissue Complement Technology, Tyler Tex; host or cells: complete human serum
- test context: 7-azatryptophan variant polypeptides of R3002; inhibition of red blood cell lysis
Starred links: 1 amine or outer side, 2 acyl side, 3 side chain; linkers in the order of their positions; H or OH if unused. Positions of bridges follow the written chain, without caps; N, C: chain ends. Non-standard residues stand in square brackets, D forms with d. Residues, ends and D or L forms follow the SMILES beside them. mXylylene = c1cc(C[*:1])cc(C[*:2])c1; Phg = N[C@H](C(=O)O)c1ccccc1; Tle = CC(C)(C)[C@H](N)C(=O)O; Nva = CCC[C@H](N)C(=O)O
Give measured IC50 for each item. Keep answers brief.

CCC[C@H](NC(=O)[C@@H](NC(=O)[C@@H]1CCCN1C(=O)[C@H](Cc1ccc(O)cc1)NC(=O)[C@H](CCC(=O)O)NC(=O)[C@@H]1CSCc2cccc(c2)CSC[C@H](NC(=O)[C@H](CCC)NC(C)=O)C(=O)N[C@@H](Cc2ccc(O)cc2)C(=O)N[C@@H](CCC(=O)O)C(=O)N[C@@H](CC(N)=O)C(=O)N[C@@H](C(C)(C)C)C(=O)N[C@@H](Cc2ccc(O)cc2)C(=O)N1)c1ccccc1)C(N)=O [Compound R3017] (Ac-[Nva]CYEN[Tle]YCEYP[Phg][Nva]-NH2; linker 2-8 via mXylylene) = > 100 µM
CCC[C@H](NC(=O)[C@@H](NC(=O)[C@@H]1CCCN1C(=O)[C@H](Cc1ccc(O)cc1)NC(=O)[C@H](CCC(=O)O)NC(=O)[C@@H](Cc1c[nH]c2ccccc12)NC(=O)[C@H](Cc1ccc(O)cc1)NC(=O)[C@H](CC(N)=O)NC(=O)[C@H](CCC(=O)O)NC(=O)[C@H](Cc1ccc(O)cc1)NC(C)=O)c1ccccc1)C(N)=O [Compound R3119, Ac-Y-E-N-Y-(D-Trp)-E-Y-P-Phg-Nvl-NH2] (Ac-YENY[dW]EYP[Phg][Nva]-NH2) = > 100 µM

Would you kindly look at the next entry?
Request: Answer with the recorded IC50 of `CCC[C@H](NC(=O)[C@@H](NC(=O)[C@@H]1CCCN1C(=O)[C@H](Cc1ccc(O)cc1)NC(=O)[C@H](CCC(=O)O)NC(=O)[C@H](Cc1c[nH]c2ccc(OC)cc12)NC(=O)[C@H](Cc1ccc(O)cc1)NC(=O)[C@@H](NC(=O)[C@H](CC(N)=O)NC(=O)[C@H](CCC(=O)O)NC(=O)[C@H](Cc1ccc(O)cc1)NC(C)=O)C(C)(C)C)c1ccccc1)C(N)=O` only.
Result: > 100 µM
